This listing pairs binders with measured pKd.
System name: T1, GFP-9S library array, motif 4 ND N98G;D124R (synthetic construct, N98G;D124R)
T1 chain: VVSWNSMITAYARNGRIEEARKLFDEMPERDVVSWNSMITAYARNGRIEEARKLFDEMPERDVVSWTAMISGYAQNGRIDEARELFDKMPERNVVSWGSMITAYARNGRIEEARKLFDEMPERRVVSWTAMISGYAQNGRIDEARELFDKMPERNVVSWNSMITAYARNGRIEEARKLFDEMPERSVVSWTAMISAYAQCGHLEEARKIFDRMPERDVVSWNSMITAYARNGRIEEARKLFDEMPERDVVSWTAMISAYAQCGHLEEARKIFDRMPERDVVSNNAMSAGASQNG
Method notes: high-throughput RNA pulldown from lysate on Ni-NTA beads; HRP: 50 mM Tris pH 8, 150 mM NaCl, 1 mM beta-mercaptoethanol, 50 ug/ml BSA, 3 ug/ml yeast RNA, 0.5% heparin; ITC and FP: Tris pH 8, 200 mM KCl, 5% glycerol; MST: 50 mM Tris pH 8, 200 mM NaCl, 1 mM DTT, BSA, heparin, 0.05% Tween 20
Conditions used: tags: N-terminal His-eGFP; label: 5' IRDye 800CW
FYI, pKd means -log10 of a concentration in mol per litre.

binder="AUUAUACGUGA (ssRNA) [IR-rpoA-U]" recorded_number=6.94

Short answer for AUUAAACGUGA (ssRNA) [IR-rpoA-A] : pKd was 6.80
